Tested on: Bacillus subtilis
Experiment: Antibacterial activity against Bacillus subtilis ATCC 6633 by M07-A9 CLSI method
Type: functional
MIC listing for selected molecules.
Numbers only; they are read as µg/mL.

Q: Please report MIC for the following molecule: "CC(C)CCC[C@@H](C)[C@H]1CC[C@H]2[C@@H]3C(=O)C[C@H]4C[C@H](NCCCn5ccnc5)CC[C@]4(C)[C@H]3CC[C@]12C"
Result: 8

Q: Please report MIC for the following molecule: "CC(C)CCC[C@@H](C)[C@H]1CC[C@H]2[C@@H]3C(=O)C[C@H]4C[C@H](NCCn5ccnc5)CC[C@]4(C)[C@H]3CC[C@]12C"
Result: 32

New cases:
Q: Please report MIC for the following molecule: "CC(C)CCC[C@@H](C)[C@H]1CC[C@H]2[C@@H]3[C@H](NCCn4ccnc4)C[C@H]4C[C@H](NCCn5ccnc5)CC[C@]4(C)[C@H]3CC[C@]12C"
Result: 8

----------
System: Staphylococcus aureus
Test: Antibacterial activity against Staphylococcus aureus Giorgio by M07-A9 CLSI method
Format: functional
MIC listing for selected compounds.
Numbers only; they are read as µg/mL.

// below: answered compounds
Q: Provide Staphylococcus aureus MIC reading for "CC(C)CCC[C@@H](C)[C@H]1CC[C@H]2[C@@H]3[C@H](NCCCn4ccnc4)C[C@H]4C[C@H](NCCCn5ccnc5)CC[C@]4(C)[C@H]3CC[C@]12C" .
Result: 4

Q: Provide Staphylococcus aureus MIC reading for "CC(C)CCC[C@@H](C)[C@H]1CC[C@H]2[C@@H]3C(=O)C[C@H]4C[C@H](NCCn5ccnc5)CC[C@]4(C)[C@H]3CC[C@]12C" .
Result: 8

Q: Provide Staphylococcus aureus MIC reading for "CC(C)CCC[C@@H](C)[C@H]1CC[C@H]2[C@@H]3[C@H](NCCn4ccnc4)C[C@H]4C[C@H](NCCn5ccnc5)CC[C@]4(C)[C@H]3CC[C@]12C" .
Result: 4

Q: Provide Staphylococcus aureus MIC reading for "Cc1onc(-c2ccccc2)c1C(=O)N[C@@H]1C(=O)N2[C@@H]1SC(C)(C)[C@@H]2C(=O)O" .
Result: 0.5

New cases:
Q: Provide Staphylococcus aureus MIC reading for "CC(C)CCC[C@@H](C)[C@H]1CC[C@H]2[C@@H]3C(=O)C[C@H]4C[C@H](NCCc5cnc[nH]5)CC[C@]4(C)[C@H]3CC[C@]12C" .
Result: 16

----------
Test system: Staphylococcus epidermidis
Experiment: Antibacterial activity against Staphylococcus epidermidis 887E by M07-A9 CLSI method
Type: functional
MEASURE: MIC
Remember to quote the unit after the number.

Q: Please report MIC for the following compound: "CC(C)CCC[C@@H](C)[C@H]1CC[C@H]2[C@@H]3[C@H](NCCc4cnc[nH]4)C[C@H]4C[C@H](NCCc5cnc[nH]5)CC[C@]4(C)[C@H]3CC[C@]12C"
Result: 8 µg/mL

Q: Please report MIC for the following compound: "CC(C)CCC[C@@H](C)[C@H]1CC[C@H]2[C@@H]3C(=O)C[C@H]4C[C@H](NCCc5ccccn5)CC[C@]4(C)[C@H]3CC[C@]12C"
Result: 16 µg/mL

Q: Please report MIC for the following compound: "CC(C)CCC[C@@H](C)[C@H]1CC[C@H]2[C@@H]3[C@H](NCc4ccccn4)C[C@H]4C[C@H](NCc5ccccn5)CC[C@]4(C)[C@H]3CC[C@]12C"
Result: 1 µg/mL

Q: Please report MIC for the following compound: "CC(C)CCC[C@@H](C)[C@H]1CC[C@H]2[C@@H]3C(=O)C[C@H]4C[C@H](NCCc5cnc[nH]5)CC[C@]4(C)[C@H]3CC[C@]12C"
Result: 16 µg/mL

Lab note: next compound to report on.
Q: Please report MIC for the following compound: "CC(C)CCC[C@@H](C)[C@H]1CC[C@H]2[C@@H]3C(=O)C[C@H]4C[C@H](NCc5ccccn5)CC[C@]4(C)[C@H]3CC[C@]12C"
Result: 4 µg/mL

----------
Test system: Staphylococcus epidermidis
Test: Antibacterial activity against Staphylococcus epidermidis 887E by M07-A9 CLSI method
Assay type: functional
MEASURE: MIC (µg/mL)
Numbers only; they are read as µg/mL.

Q: Provide Staphylococcus epidermidis MIC reading for "CC(C)CCC[C@@H](C)[C@H]1CC[C@H]2[C@@H]3[C@H](NCCCn4ccnc4)C[C@H]4C[C@H](NCCCn5ccnc5)CC[C@]4(C)[C@H]3CC[C@]12C" .
Result: 4

Q: Provide Staphylococcus epidermidis MIC reading for "CC(C)CCC[C@@H](C)[C@H]1CC[C@H]2[C@@H]3[C@H](NCCn4ccnc4)C[C@H]4C[C@H](NCCn5ccnc5)CC[C@]4(C)[C@H]3CC[C@]12C" .
Result: 16

----------
Test system: Bacillus subtilis
Experiment: Antibacterial activity against Bacillus subtilis ATCC 6633 by M07-A9 CLSI method
Type: functional
MEASURE: MIC (µg/mL)
Numbers only; they are read as µg/mL.

Q: Please report MIC for the following compound: "CC(C)CCC[C@@H](C)[C@H]1CC[C@H]2[C@@H]3[C@H](NCCCn4ccnc4)C[C@H]4C[C@H](NCCCn5ccnc5)CC[C@]4(C)[C@H]3CC[C@]12C"
Result: 4

Q: Please report MIC for the following compound: "CC(C)CCC[C@@H](C)[C@H]1CC[C@H]2[C@@H]3C(=O)C[C@H]4C[C@H](NCCc5cnc[nH]5)CC[C@]4(C)[C@H]3CC[C@]12C"
Result: 32

Q: Please report MIC for the following compound: "CC(C)CCC[C@@H](C)[C@H]1CC[C@H]2[C@@H]3[C@H](NCCc4ccccn4)C[C@H]4C[C@H](NCCc5ccccn5)CC[C@]4(C)[C@H]3CC[C@]12C"
Result: 8

Q: Please report MIC for the following compound: "CC(C)CCC[C@@H](C)[C@H]1CC[C@H]2[C@@H]3C(=O)C[C@H]4C[C@H](NCc5ccccn5)CC[C@]4(C)[C@H]3CC[C@]12C"
Result: 4

----------
Test system: Pseudomonas aeruginosa
Assay: Antibacterial activity against Pseudomonas aeruginosa 6065Y by M07-A9 CLSI method
Type: functional
MEASURE: MIC

Q: Please report MIC for the following compound: Cc1onc(-c2ccccc2)c1C(=O)N[C@@H]1C(=O)N2[C@@H]1SC(C)(C)[C@@H]2C(=O)O [OXACILLIN]
Result: > 32 µg/mL

New cases:
Q: Please report MIC for the following compound: "CC(C)CCC[C@@H](C)[C@H]1CC[C@H]2[C@@H]3C(=O)C[C@H]4C[C@H](NCCc5cnc[nH]5)CC[C@]4(C)[C@H]3CC[C@]12C"
Result: > 32 µg/mL

Q: Please report MIC for the following compound: "CC(C)CCC[C@@H](C)[C@H]1CC[C@H]2[C@@H]3C(=O)C[C@H]4C[C@H](NCCCn5ccnc5)CC[C@]4(C)[C@H]3CC[C@]12C"
Result: > 32 µg/mL

----------
MIC listing for selected compounds.
Tested on: Staphylococcus aureus
Experiment: Antibacterial activity against Staphylococcus aureus 241 by M07-A9 CLSI method
Assay type: functional
Numbers only; they are read as µg/mL.

Q: Please report MIC for the following compound: "CC(C)CCC[C@@H](C)[C@H]1CC[C@H]2[C@@H]3[C@H](NCCc4ccccn4)C[C@H]4C[C@H](NCCc5ccccn5)CC[C@]4(C)[C@H]3CC[C@]12C"
Result: 8

Q: Please report MIC for the following compound: "CC(C)CCC[C@@H](C)[C@H]1CC[C@H]2[C@@H]3[C@H](NCCc4cnc[nH]4)C[C@H]4C[C@H](NCCc5cnc[nH]5)CC[C@]4(C)[C@H]3CC[C@]12C"
Result: 8

Q: Please report MIC for the following compound: "CC(C)CCC[C@@H](C)[C@H]1CC[C@H]2[C@@H]3[C@H](NCc4ccccn4)C[C@H]4C[C@H](NCc5ccccn5)CC[C@]4(C)[C@H]3CC[C@]12C"
Result: 2

Q: Please report MIC for the following compound: "CC(C)CCC[C@@H](C)[C@H]1CC[C@H]2[C@@H]3C(=O)C[C@H]4C[C@H](NCCn5ccnc5)CC[C@]4(C)[C@H]3CC[C@]12C"
Result: 16

Lab note: next compound to report on.
Q: Please report MIC for the following compound: "CC(C)CCC[C@@H](C)[C@H]1CC[C@H]2[C@@H]3C(=O)C[C@H]4C[C@H](NCc5ccccn5)CC[C@]4(C)[C@H]3CC[C@]12C"
Result: 32
